Each recorded value in this set is attributed to patent US20260125454A1.

# SYSTEM_TESTED: T1, Biotin-huCGRPaSA (human, not fully specified; biotin (position not given))
# T1 construct: exact construct ('aSA') not explained; also called Biotin CGRPaSA; full-length (1-37) CGRP
# T1 peptide: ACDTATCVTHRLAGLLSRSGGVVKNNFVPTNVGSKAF
# TEST_DESCRIPTION: ELISA, supernatant; relative to chimeric C245
RESULT_TYPE: Relative binding activity, % (%)
Note: unit % is implicit; provide only the numeric part.

Can you look up the measured Relative binding activity, % of hu173 (antibody, V domains shown, 3E5 HC-3/1A2 LC2-4) VH: QVQLVQSGAEVKKPGASVKVSCKASGYTFTDYNMHWVRQAPGQGLEWMGYISPYNGGTAYNQKFKFRVTLTVDTSSSTAYMELSRLRSDDTVVYYCAREGLGGYWGQGTLVTVSS VL: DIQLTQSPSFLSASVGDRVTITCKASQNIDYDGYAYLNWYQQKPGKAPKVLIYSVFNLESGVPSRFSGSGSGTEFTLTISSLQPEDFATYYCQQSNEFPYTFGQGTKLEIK for me?
92

Can you look up the measured Relative binding activity, % of hu194 (antibody, V domains shown, 3E5 HC-4/3H10 LC2-1) VH: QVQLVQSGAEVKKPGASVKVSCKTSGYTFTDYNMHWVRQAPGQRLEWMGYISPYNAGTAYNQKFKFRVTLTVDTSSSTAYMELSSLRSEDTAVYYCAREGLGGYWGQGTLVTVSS VL: DIVLTQSPDSLAVSLGERATINCKASQNIDYGGYSYMNWYQQKPGQPPKVLIYSVFNLESGVPDRFSGSGSGTDFTLTISSLQAEDVAVYYCQQSNEAPYTFGQGTKLEIK for me?
98

Can you look up the measured Relative binding activity, % of hu95 (antibody, V domains shown, 2A2 HC-1/1A2 LC2-4) VH: QVQLVQSGAEVKKPGASVKVSCKASGYTFTDYNMHWVRQAPGQRLEWMGYVYPYNGGSAYNQKFKSRVTLTVDTSSSTAYMELSSLRSEDTAVYYCAREGLGGYWGQGTLVTVSS VL: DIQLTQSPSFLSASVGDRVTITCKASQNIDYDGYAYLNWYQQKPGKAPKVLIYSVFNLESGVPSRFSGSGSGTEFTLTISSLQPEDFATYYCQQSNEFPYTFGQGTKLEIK for me?
43
